Tested on: NCI-H929 complex spheroids, viability % test/control
assay method text: Anticancer human tumor NCI-H929 cell line growth inhibition [RAS]; active means viability on the fitted dose curve at most 10% of control; inactive means the rest;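 further: compound exposure lasted seven days before viability was read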
condition set: second compound 0.0949 µM; first compound 0.01 µM
Possible outcomes: active, inactive

compound	group
CC(C)n1nc(-c2ccc3oc(N)nc3c2)c2c(N)ncnc21 + CCn1c(-c2cccnc2C(C)OC)c2c3cc(ccc31)N1CCOC(CC(NC(=O)C(C(C)C)N(C)C(=O)C3(F)CCN(C(=O)C#CC(C)(C)N(C)C)CC3)C(=O)N3CCCC(N3)C(=O)OCC(C)(C)C2)C1	inactive
C=CC(=O)N1CCN(c2nc(OCC3CCCN3C)nc3c(F)c(-c4nc(N)cc(C)c4C(F)(F)F)c(Cl)cc23)C(C)C1 (centres undefined) + CCn1c(-c2cccnc2C(C)OC)c2c3cc(ccc31)N1CCOC(CC(NC(=O)C(C(C)C)N(C)C(=O)C3(F)CCN(C(=O)C#CC(C)(C)N(C)C)CC3)C(=O)N3CCCC(N3)C(=O)OCC(C)(C)C2)C1	inactive
CCN1CCN(Cc2ccc(Nc3ncc(F)c(-c4cc(F)c5nc(C)n(C(C)C)c5c4)n3)nc2)CC1 + CCn1c(-c2cccnc2C(C)OC)c2c3cc(ccc31)N1CCOC(CC(NC(=O)C(C(C)C)N(C)C(=O)C3(F)CCN(C(=O)C#CC(C)(C)N(C)C)CC3)C(=O)N3CCCC(N3)C(=O)OCC(C)(C)C2)C1	inactive
C=CC(=O)Nc1cc(Nc2nccc(-c3cn(C)c4ccccc34)n2)c(OC)cc1N(C)CCN(C)C + CCn1c(-c2cc(N3CCN(C)CC3)cnc2C(C)OC)c2c3cc(ccc31)-c1csc(n1)CC(NC(=O)C1CC1C)C(=O)N1CCCC(N1)C(=O)OCC(C)(C)C2	active

###

The following molecules are listed with their measured IC50 values.
System: NCI-H929 complex spheroids, viability % test/control
assay method text: Anticancer human tumor NCI-H929 cell line growth inhibition [RAS];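 further: compound exposure lasted seven days before viability was read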
condition set: curve of first compound; second compound 3.16 µM

molecule	experimental target	IC50
CCN1CCN(Cc2ccc(Nc3ncc(F)c(-c4cc(F)c5nc(C)n(C(C)C)c5c4)n3)nc2)CC1 + C#Cc1c(F)ccc2cc(O)cc(-c3ncc4c(N5CC6CCC(C5)N6)nc(OCC56CCCN5CC(F)C6)nc4c3F)c12	NCI-H929 complex spheroids, viability % test/control	> 1000 nM
C[C@@H](NC(=O)c1ncnc(N)c1Cl)c1ncc(C(=O)Nc2cc(C(F)(F)F)c(Cl)cn2)s1 + C#Cc1c(F)ccc2cc(O)cc(-c3ncc4c(N5CC6CCC(C5)N6)nc(OCC56CCCN5CC(F)C6)nc4c3F)c12	NCI-H929 complex spheroids, viability % test/control	> 10000 nM
CC1(C)CCC(Nc2ncc(C(F)(F)F)c(-c3c[nH]c4c(P(C)(C)=O)c(C#N)ccc34)n2)CN1 (stereo not drawn) + C#Cc1c(F)ccc2cc(O)cc(-c3ncc4c(N5CC6CCC(C5)N6)nc(OCC56CCCN5CC(F)C6)nc4c3F)c12	NCI-H929 complex spheroids, viability % test/control	6.8 nM

###

The following compounds are listed with their measured viability, T/C values.
Test system: NCI-H929 complex spheroids, viability % test/control
assay method text: Anticancer human tumor NCI-H929 cell line growth inhibition [RAS];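 further: compound exposure lasted seven days before viability was read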;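 on viability, T/C: 100% = DMSO vehicle control viability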
condition set: second compound 0.316 µM; first compound 0.003 µM; stronger effect = lower value

compound	output unit	viability, T/C
CCc1c2c(nc3ccc(O)cc13)-c1cc3c(c(=O)n1C2)COC(=O)[C@]3(O)CC + C=CC(=O)N1CCN(c2nc(OCC3CCCN3C)nc3c(F)c(-c4nc(N)cc(C)c4C(F)(F)F)c(Cl)cc23)C(C)C1	%	20.4
CCc1c2c(nc3ccc(O)cc13)-c1cc3c(c(=O)n1C2)COC(=O)[C@]3(O)CC + C#Cc1c(F)ccc2cc(O)cc(-c3ncc4c(N5CC6CCC(C5)N6)nc(OCC56CCCN5CC(F)C6)nc4c3F)c12	%	10.5
CC1(C)CCC(Nc2ncc(C(F)(F)F)c(-c3c[nH]c4c(P(C)(C)=O)c(C#N)ccc34)n2)CN1 (centres undefined) + C=CC(=O)N1CCN(c2nc(OCC3CCCN3C)nc3c(F)c(-c4nc(N)cc(C)c4C(F)(F)F)c(Cl)cc23)C(C)C1	%	114
CC1(C)CCC(Nc2ncc(C(F)(F)F)c(-c3c[nH]c4c(P(C)(C)=O)c(C#N)ccc34)n2)CN1 (centres undefined) + C#Cc1c(F)ccc2cc(O)cc(-c3ncc4c(N5CC6CCC(C5)N6)nc(OCC56CCCN5CC(F)C6)nc4c3F)c12	%	114

###

The following molecules are listed with their measured viability, T/C values.
Test system: NCI-H929 complex spheroids, viability % test/control
assay method text: Anticancer human tumor NCI-H929 cell line growth inhibition [RAS];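 further: compound exposure lasted seven days before viability was read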;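 on viability, T/C: 100% = DMSO vehicle control viability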
condition set: second compound 0.01 µM; first compound 0.00316 µM; stronger effect = lower value

molecule	output unit	viability, T/C
O=C(c1ccc(F)c(F)c1Nc1ccc(I)cc1F)N1CC(O)([C@@H]2CCCCN2)C1 + C=CC(=O)N1CCN(c2nc(OCC3CCCN3C)nc3c(F)c(-c4nc(N)cc(C)c4C(F)(F)F)c(Cl)cc23)C(C)C1	%	102
Nc1ccn(C2OC(CO)C(O)C2(F)F)c(=O)n1 (stereo not given) + C=CC(=O)N1CCN(c2nc(OCC3CCCN3C)nc3c(F)c(-c4nc(N)cc(C)c4C(F)(F)F)c(Cl)cc23)C(C)C1	%	97.8
C=CC(=O)Nc1cc(Nc2nccc(-c3cn(C)c4ccccc34)n2)c(OC)cc1N(C)CCN(C)C + C=CC(=O)N1CCN(c2nc(OCC3CCCN3C)nc3c(F)c(-c4nc(N)cc(C)c4C(F)(F)F)c(Cl)cc23)C(C)C1	%	101
CCN1CCN(Cc2ccc(Nc3ncc(F)c(-c4cc(F)c5nc(C)n(C(C)C)c5c4)n3)nc2)CC1 + C=CC(=O)N1CCN(c2nc(OCC3CCCN3C)nc3c(F)c(-c4nc(N)cc(C)c4C(F)(F)F)c(Cl)cc23)C(C)C1	%	100
CC(C)n1nc(-c2ccc3oc(N)nc3c2)c2c(N)ncnc21 + C=CC(=O)N1CCN(c2nc(OCC3CCCN3C)nc3c(F)c(-c4nc(N)cc(C)c4C(F)(F)F)c(Cl)cc23)C(C)C1	%	109

###

Tested on: NCI-H929 complex spheroids, viability % test/control
assay method text: Anticancer human tumor NCI-H929 cell line growth inhibition [RAS];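 further: compound exposure lasted seven days before viability was read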;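 on viability, T/C: 100% = DMSO vehicle control viability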
condition set: compound 0.316 µM; stronger effect = lower value
quantity measured: viability, T/C

> print(dat)
                                   compound                    result
1  Cc1nc(N2CCC3(CC2)COC(C)C3N)c(CO)nc1Sc1ccnc(N)c1Cl (stereo not drawn)   107% [middle of 4 runs]
2  C=CC(=O)N1CCN(c2nc(OCC3CCCN3C)nc3c(F)c(-c4nc(N)cc(C)c4C(F)(F)F)c(Cl)cc23)C(C)C1 (stereo not drawn)  100% [middle of 13 runs]
3  CCC(CC)c1cc(NC2CCC(N)C2)n2nccc2n1 (stereo not drawn)  99.4% [middle of 4 runs]

###

The following compounds are listed with their measured viability, T/C values.
Test system: NCI-H929 complex spheroids, viability % test/control
assay method text: Anticancer human tumor NCI-H929 cell line growth inhibition [RAS];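 further: compound exposure lasted seven days before viability was read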;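 on viability, T/C: 100% = DMSO vehicle control viability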
condition set: second compound 0.0949 µM; first compound 0.316 µM; stronger effect = lower value

compound	experimental target	viability, T/C
Cc1nc(N2CCC3(CC2)COC(C)C3N)c(CO)nc1Sc1ccnc(N)c1Cl (configuration not stated) + CCn1c(-c2cc(N3CCN(C)CC3)cnc2C(C)OC)c2c3cc(ccc31)-c1csc(n1)CC(NC(=O)C1CC1C)C(=O)N1CCCC(N1)C(=O)OCC(C)(C)C2	NCI-H929 complex spheroids, viability % test/control	4.23%
CC(Nc1ccc2c(c1)OCCn1cc(N3C(=O)OCC3C(F)F)nc1-2)C(N)=O (configuration not stated) + CCn1c(-c2cc(N3CCN(C)CC3)cnc2C(C)OC)c2c3cc(ccc31)-c1csc(n1)CC(NC(=O)C1CC1C)C(=O)N1CCCC(N1)C(=O)OCC(C)(C)C2	NCI-H929 complex spheroids, viability % test/control	0.54%
C[C@@H](NC(=O)c1ncnc(N)c1Cl)c1ncc(C(=O)Nc2cc(C(F)(F)F)c(Cl)cn2)s1 + CCn1c(-c2cc(N3CCN(C)CC3)cnc2C(C)OC)c2c3cc(ccc31)-c1csc(n1)CC(NC(=O)C1CC1C)C(=O)N1CCCC(N1)C(=O)OCC(C)(C)C2	NCI-H929 complex spheroids, viability % test/control	35.9%
Cc1nc(N2CCC3(CC2)COC(C)C3N)c(CO)nc1Sc1ccnc(N)c1Cl (configuration not stated) + CCn1c(-c2cccnc2C(C)OC)c2c3cc(ccc31)N1CCOC(CC(NC(=O)C(C(C)C)N(C)C(=O)C3(F)CCN(C(=O)C#CC(C)(C)N(C)C)CC3)C(=O)N3CCCC(N3)C(=O)OCC(C)(C)C2)C1	NCI-H929 complex spheroids, viability % test/control	98.2%
CC1(O)CCCC1n1c(=O)c(C(F)F)cc2cnc(NC3CCN(S(C)(=O)=O)CC3)nc21 (configuration not stated) + CCn1c(-c2cc(N3CCN(C)CC3)cnc2C(C)OC)c2c3cc(ccc31)-c1csc(n1)CC(NC(=O)C1CC1C)C(=O)N1CCCC(N1)C(=O)OCC(C)(C)C2	NCI-H929 complex spheroids, viability % test/control	3.2%
CC(Nc1ccc2c(c1)OCCn1cc(N3C(=O)OCC3C(F)F)nc1-2)C(N)=O (configuration not stated) + CCn1c(-c2cccnc2C(C)OC)c2c3cc(ccc31)N1CCOC(CC(NC(=O)C(C(C)C)N(C)C(=O)C3(F)CCN(C(=O)C#CC(C)(C)N(C)C)CC3)C(=O)N3CCCC(N3)C(=O)OCC(C)(C)C2)C1	NCI-H929 complex spheroids, viability % test/control	94.5%
C[C@@H](NC(=O)c1ncnc(N)c1Cl)c1ncc(C(=O)Nc2cc(C(F)(F)F)c(Cl)cn2)s1 + CCn1c(-c2cccnc2C(C)OC)c2c3cc(ccc31)N1CCOC(CC(NC(=O)C(C(C)C)N(C)C(=O)C3(F)CCN(C(=O)C#CC(C)(C)N(C)C)CC3)C(=O)N3CCCC(N3)C(=O)OCC(C)(C)C2)C1	NCI-H929 complex spheroids, viability % test/control	94.8%
